experiment: total protein half-life in vivo (active degradation + dilution); higher = more stable protein; details: E. coli NCM3722 delta-clpP delta-lon delta-hslV; growth: N-lim chemostat; doubling time 6 h
Measured endpoint: total protein half-life in vivo (h)
Unit h implied. Number only.

Sequence input	Measurement
MKRNLLSSAIIVAIMSLGLTGCDDKKAETETLPPANSQPAAPAPEAKPTEAPVAKAEAKPETPAQPVVDEQAVFDEKMDVYIKCYNKLQIPVQRSLARYADWLKDFKQGPTGEERTVYGIYGISESNLAECEKGVKSAVALTPALQPIDGVAVSYIDAAVALGNTINEMDKYYTQENYKDDAFAKGKTLHQTFLKNLEAFEPVAESYHAAIQEINDKRQLAELKNIEEREGKTFHYYSLAVMISAKQINNLISQDKFDAEAAMKKVSELETLVAQAKEADKGGMNFSFINSAGQYQLEAKKYVRRIRDKVPYSDWDKEQLQDANSSWMVEDSFPRALREYNEMVDDYNSLR	6

Attention now turns to another entry.
Qu. total protein half-life in vivo lookup needed for `MTLTASSSSRAVTNSPVVVALDYHNRDDALAFVDKIDPRDCRLKVGKEMFTLFGPQFVRELQQRGFDIFLDLKFHDIPNTAAHAVAAAADLGVWMVNVHASGGARMMTAAREALVPFGKDAPLLIAVTVLTSMEASDLVDLGMTLSPADYAERLAALTQKCGLDGVVCSAQEAVRFKQVFGQEFKLVTPGIRPQGSEAGDQRRIMTPEQALSAGVDYMVIGRPVTQSVDPAQTLKAINASLQRSA` , thanks.
Ans. 5.11

====

experiment: total protein half-life in vivo (active degradation + dilution); higher = more stable protein; details: E. coli NCM3722 delta-lon; growth: N-lim chemostat; doubling time 6 h
Measured endpoint: total protein half-life in vivo (h)
Unit h implied. Number only.

Examples with their reported total protein half-life in vivo follow.
Sequence input	total protein half-life in vivo [h]
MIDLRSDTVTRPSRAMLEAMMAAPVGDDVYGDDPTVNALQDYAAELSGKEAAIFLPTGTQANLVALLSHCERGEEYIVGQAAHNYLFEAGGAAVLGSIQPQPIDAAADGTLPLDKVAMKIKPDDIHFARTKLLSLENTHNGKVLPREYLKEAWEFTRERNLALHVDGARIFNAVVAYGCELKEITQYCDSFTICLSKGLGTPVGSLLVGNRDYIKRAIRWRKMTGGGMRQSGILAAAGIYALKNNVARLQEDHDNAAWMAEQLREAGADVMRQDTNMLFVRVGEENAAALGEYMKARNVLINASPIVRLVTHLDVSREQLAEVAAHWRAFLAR	5.53
MANVEIYTKETCPYCHRAKALLSSKGVSFQELPIDGNAAKREEMIKRSGRTTVPQIFIDAQHIGGCDDLYALDARGGLDPLLK [P0AC62]	5.33
MENYLIDNLDRGILEALMGNARTAYAELAKQFGVSPGTIHVRVEKMKQAGIITGARIDVSPKQLGYDVGCFIGIILKSAKDYPSALAKLESLDEVTEAYYTTGHYSIFIKVMCRSIDALQHVLINKIQTIDEIQSTETLIVLQNPIMRTIKP [P0ACI6]	5.77
MEISFTRVALLAAALFFVGCDQKPQPAKTHATEVTVLEGKTMGTFWRASIPGIDAKRSAELKEKIQTQLDADDQLLSTYKKDSALMRFNDSQSLSPWPVSEAMADIVTTSLRIGAKTDGAMDITVGPLVNLWGFGPEQQPVQIPSQEQIDAMKAKTGLQHLTVINQSHQQYLQKDLPDLYVDLSTVGEGYAADHLARLMEQEGISRYLVSVGGALNSRGMNGEGLPWRVAIQKPTDKENAVQAVVDINGHGISTSGSYRNYYELDGKRLSHVIDPQTGRPIEHNLVSVTVIAPTALEADAWDTGLMVLGPEKAKEVVRREGLAVYMITKEGDSFKTWMSPQFKSFLVSEKN [P0AB85]	6.9
MKQHQSADNSQGQLYIVPTPIGNLADITQRALEVLQAVDLIAAEDTRHTGLLLQHFGINARLFALHDHNEQQKAETLLAKLQEGQNIALVSDAGTPLINDPGYHLVRTCREAGIRVVPLPGPCAAITALSAAGLPSDRFCYEGFLPAKSKGRRDALKAIEAEPRTLIFYESTHRLLDSLEDIVAVLGESRYVVLARELTKTWETIHGAPVGELLAWVKEDENRRKGEMVLIVEGHKAQEEDLPADALRTLALLQAELPLKKAAALAAEIHGVKKNALYKYALEQQG	5.1

Attention now turns to another entry.
Qu. total protein half-life in vivo lookup needed for `MLLSIITVAFRNLEGIVKTHASLAHLAQVEDISFEWIVVDGGSNDGTREYLENLNGIFNLRFVSEPDNGIYDAMNKGIAMAQGKFALFLNSGDIFHQNAANFVRKLKMQKDNVMITGDALLDFGDGHKIKRSAKPGWYIYHSLPASHQAIFFPVSGLKKWRYDLEYKVSSDYALAAKMYKAGYAFKKLNGLVSEFSMGGVSTTNNMELCADAKKVQRQILHVPGFWAELSWHLRQRTTSKTKALYNKV` , thanks.
Ans. 1.5

====

assay: total protein half-life in vivo (active degradation + dilution); higher = more stable protein; details: E. coli NCM3722 delta-clpP delta-lon delta-hslV; growth: N-lim chemostat; doubling time 6 h
total protein half-life in vivo values for the sequences below.
Unit h implied. Number only.

Sequence input	total protein half-life in vivo / h
MTLLASLRDWLKAQQLDAVLLSSRQNKQPHLGISTGSGYVVISRESAHILVDSRYYVEVEARAQGYQLHLLDATNTLTTIVNQIIADEQLQTLGFEGQQVSWETAHRWQSELNAKLVSATPDVLRQIKTPEEVEKIRLACGIADRGAEHIRRFIQAGMSEREIAAELEWFMRQQGAEKASFDTIVASGWRGALPHGKASDKIVAAGEFVTLDFGALYQGYCSDMTRTLLVNGEGVSAESHLLFNVYQIVLQAQLAAISAIRPGVRCQQVDDAARRVITEAGYGDYFGHNTGHAIGIEVHEDPRFSPRDTTTLQPGMLLTVEPGIYLPGQGGVRIEDVVLVTPQGAEVLYAMPKTVLLTGEA	6.04

Attention now turns to another entry.
Qu. total protein half-life in vivo lookup needed for MIAELFTNNALNLVIIFGSCAALILMSFWFRRGNRKRKGFLFHAVQFLIYTIIISAVGSIINYVIENYKLKFITPGVIDFICTSLIAVILTIKLFLLINQFEKQQIKKGRDITSARIMSRIIKITIIVVLVLLYGEHFGMSLSGLLTFGGIGGLAVGMAGKDILSNFFSGIMLYFDRPFSIGDWIRSPDRNIEGTVAEIGWRITKITTFDNRPLYVPNSLFSSISVENPGRMTNRRITTTIGLRYEDAAKVGVIVEAVREMLKNHPAIDQRQTLLVYFNQFADSSLNIMVYCFTKTTVWAEWLAAQQDVYLKIIDIVQSHGADFAFPSQTLYMDNITPPEQGR [P0AEB5] , thanks.
Ans. 6.12

====

total protein half-life in vivo values for the sequences below.
experiment: total protein half-life in vivo (active degradation + dilution); higher = more stable protein; conditions: E. coli NCM3722 delta-smpB; growth: N-lim chemostat; doubling time 6 h
Unit h implied. Number only.

Sequence input	total protein half-life in vivo / h
MNLSTKQKQHLKGLAHPLKPVVLLGSNGLTEGVLAEIEQALEHHELIKVKIATEDRETKTLIVEAIVRETGACNVQVIGKTLVLYRPTKERKISLPR [P0AGK4]	5.7

Qu. total protein half-life in vivo lookup needed for `MLKIIRAGMYTTVQDGGRHGFRQSGISHCGALDMPALRIANLLVGNDANAPALEITLGQLTVEFETDGWFALTGAGCEARLDDNAVWTGWRLPMKAGQRLTLKRPQHGMRSYLAVAGGIDVPPVMGSCSTDLKVGIGGLEGRLLKDGDRLPIGKSKRDSMEAQGVKQLLWGNRIRALPGPEYHEFDRASQDAFWRSPWQLSSQSNRMGYRLQGQILKRTTDRELLSHGLLPGVVQVPHNGQPIVLMNDAQTTGGYPRIACIIEADMYHLAQIPLGQPIHFVQCSLEEALKARQDQQRYFEQLAWRLHNEN` , thanks.
Ans. 4.88

====

assay: total protein half-life in vivo (active degradation + dilution); higher = more stable protein; details: wild type E. coli NCM3722; growth: P-lim chemostat; doubling time 6 h
Y means recorded total protein half-life in vivo is 5 h or above; N means it is below 5 h.

Sequence input	Label class
MTTRVIALDLDGTLLTPKKTLLPSSIEALARAREAGYQLIIVTGRHHVAIHPFYQALALDTPAICCNGTYLYDYHAKTVLEADPMPVIKALQLIEMLNEHHIHGLMYVDDAMVYEHPTGHVIRTSNWAQTLPPEQRPTFTQVASLAETAQQVNAVWKFALTHDDLPQLQHFGKHVEHELGLECEWSWHDQVDIARGGNSKGKRLTKWVEAQGWSMENVVAFGDNFNDISMLEAAGTGVAMGNADDAVKARANIVIGDNTTDSIAQFIYSHLI	N
MVSSFTSAPRSGFYYFAQGWKLVSQPGIRRFVILPLLVNILLMGGAFWWLFTQLDVWIPTLMSYVPDWLQWLSYLLWPLAVISVLLVFGYFFSTIANWIAAPFNGLLAEQLEARLTGATPPDTGIFGIMKDVPRIMKREWQKFAWYLPRAIVLLILYFIPGIGQTVAPVLWFLFSAWMLAIQYCDYPFDNHKVPFKEMRTALRTRKITNMQFGALTSLFTMIPLLNLFIMPVAVCGATAMWVDCYRDKHAMWR [P0A6J3]	Y
MPPRRYNPDTRRDELLERINLDIPGAVAQALREDLGGTVDANNDITAKLLPENSRSHATVITRENGVFCGKRWVEEVFIQLAGDDVTIIWHVDDGDVINANQSLFELEGPSRVLLTGERTALNFVQTLSGVASKVRHYVELLEGTNTQLLDTRKTLPGLRSALKYAVLCGGGANHRLGLSDAFLIKENHIIASGSVRQAVEKASWLHPDAPVEVEVENLEELDEALKAGADIIMLDNFETEQMREAVKRTNGKALLEVSGNVTDKTLREFAETGVDFISVGALTKHVQALDLSMRFR	Y
MKIISKMLVGALALAVTNVYAAELMTKAEFEKVESQYEKIGDISTSNEMSTADAKEDLIKKADEKGADVLVLTSGQTDNKIHGTANIYKKK	N
MTVQDYLLKFRKISSLESLEKLYDHLNYTLTDDQELINMYRAADHRRAELVSGGRLFDLGQVPKSVWHYVQ	N

Qu. Test whether the sequence MSNQFGDTRIDDDLTLLSETLEEVLRSSGDPADQKYVELKARAEKALDDVKKRVSQASDSYYYRAKQAVYRADDYVHEKPWQGIGVGAAVGLVLGLLLARR [P0AEH5] records total protein half-life in vivo of 5 h or higher.
Ans. Y

Qu. Follow-up entry: `MNRIEHYHDWLRDAHAMEKQAESMLESMASRIDNYPELRARIEQHLSETKNQIVQLETILDRNDISRSVIKDSMSKMAALGQSIGGIFPSDEIVKGSISGYVFEQFEIACYTSLLAAAKNAGDTASIPTIEAILNEEKQMADWLIQNIPQTTEKFLIRSETDGVEAKK`
Ans. Y

From: the supplement of paper PMC11246515
